- PROTOCOL: Cytotoxicity against human IGROV-ET cells after 48 hrs by SRB assay
- Format: functional
- MEASUREMENT CONDITIONS: read-out: LC50 (the source's name)
Param label: returns true when CC50 < 400 nM, returns false otherwise, including exact equality.

{"SMI": "C/C=C1\\NC(=O)[C@H](Cc2ccccc2)NC(=O)[C@@H](C(C)C)NC(=O)[C@@H]([C@H](C)CC)NC(=O)[C@H](NC(=O)[C@H](NC(=O)[C@H](CCCNC(=O)CCCC[C@@H]2SC[C@@H]3NC(=O)N[C@@H]32)NC(=O)[C@H]2CCCN2C(=O)[C@H](NC(=O)[C@@H](NC(=O)[C@@H](NC(=O)[C@H](NC(=O)CCCC(C)C)C(C)C)[C@@H](C)O)C(C)C)C(C)C)[C@H](C)CC)[C@H](C)OC(=O)[C@H](C(C)C)NC1=O", "CLASS": "true"}
{"SMI": "C/C=C1\\NC(=O)[C@H](Cc2ccccc2)NC(=O)[C@@H](C(C)C)NC(=O)[C@@H]([C@H](C)CC)NC(=O)[C@H](NC(=O)[C@H](NC(=O)[C@H](CCCN)NC(=O)[C@H]2CCCN2C(=O)[C@H](NC(=O)[C@@H](NC(=O)[C@@H](NC(=O)[C@@H](CC(C)C)NC(=O)CCCC(C)C)[C@@H](C)O)C(C)C)C(C)C)[C@H](C)CC)[C@H](C)OC(=O)[C@H](C(C)C)NC1=O", "CLASS": "true"}
{"SMI": "C/C=C1\\NC(=O)[C@H](Cc2ccccc2)NC(=O)[C@@H](C(C)C)NC(=O)[C@@H]([C@H](C)CC)NC(=O)[C@H](NC(=O)[C@H](NC(=O)[C@H](CCCNC(=O)C(F)(F)F)NC(=O)[C@H]2CCCN2C(=O)[C@H](NC(=O)[C@@H](NC(=O)[C@@H](NC(=O)[C@H](NC(=O)CC[C@@H](C)CC)C(C)C)[C@@H](C)O)C(C)C)C(C)C)[C@H](C)CC)[C@H](C)OC(=O)[C@H](C(C)C)NC1=O", "CLASS": "false"}
{"SMI": "C/C=C1\\NC(=O)[C@H](Cc2ccccc2)NC(=O)[C@@H](C(C)C)NC(=O)[C@@H]([C@H](C)CC)NC(=O)[C@H](NC(=O)[C@H](NC(=O)[C@H](CCCNC(=O)CCOCCOCCNC(=O)OCC2c3ccccc3-c3ccccc32)NC(=O)[C@H]2CCCN2C(=O)[C@H](NC(=O)[C@@H](NC(=O)[C@@H](NC(=O)[C@H](NC(=O)CCCC(C)C)C(C)C)[C@@H](C)O)C(C)C)C(C)C)[C@H](C)CC)[C@H](C)OC(=O)[C@H](C(C)C)NC1=O", "CLASS": "true"}
{"SMI": "C/C=C1\\NC(=O)[C@H](Cc2ccccc2)NC(=O)[C@@H](C(C)C)NC(=O)[C@@H](C(C)C)NC(=O)[C@H](NC(=O)[C@H](NC(=O)[C@H](CCCN)NC(=O)[C@H]2CCCN2C(=O)[C@H](NC(=O)[C@@H](NC(=O)[C@@H](NC(=O)[C@H](NC(=O)CCCC(C)C)C(C)C)[C@@H](C)O)C(C)C)C(C)C)C(C)C)[C@H](C)OC(=O)[C@H](C(C)C)NC1=O", "CLASS": "false"}
